- System: human red blood cells (HRBCs)
- measurement-protocol: Anti-hemolytic effect (hypotonic solution-induced human erythrocyte hemolysis)
- Assay type: cell-based
- condition-set: read-out: Hemolysis-IC50 (µM ± SD)
measured-quantity: IC50 (µM)

>>> endpoint_value("O=C(O)Cc1ccccc1Nc1c(Cl)cccc1Cl [Diclofenac, reference compound]")
1120

====

- target-or-system: MAO-B (Homo sapiens, UniProt P27338)
- Construct: purchased Sigma M7441
- Sequence (P27338 whole entry): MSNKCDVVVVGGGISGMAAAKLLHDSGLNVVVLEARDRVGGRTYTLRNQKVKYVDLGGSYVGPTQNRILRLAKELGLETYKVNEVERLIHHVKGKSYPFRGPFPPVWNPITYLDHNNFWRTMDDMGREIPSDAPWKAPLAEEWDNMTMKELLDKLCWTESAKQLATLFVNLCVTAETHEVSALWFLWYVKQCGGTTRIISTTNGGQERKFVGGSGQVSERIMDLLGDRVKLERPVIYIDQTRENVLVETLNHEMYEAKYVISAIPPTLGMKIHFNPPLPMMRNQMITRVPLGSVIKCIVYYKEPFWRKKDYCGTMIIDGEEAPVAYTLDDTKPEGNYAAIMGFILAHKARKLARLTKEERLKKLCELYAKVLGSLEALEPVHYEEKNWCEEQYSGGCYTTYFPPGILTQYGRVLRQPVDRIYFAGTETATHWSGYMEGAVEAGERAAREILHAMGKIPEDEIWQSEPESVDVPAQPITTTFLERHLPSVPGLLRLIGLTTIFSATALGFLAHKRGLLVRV
- measurement-protocol: MAO-B inhibitory assay
- Format: biochemical
measured-quantity: IC50

>>> endpoint_value("O=C(COc1ccccc1-c1nc(Cc2ccccc2)no1)N/N=C\\c1ccccc1[N+](=O)[O-]")
"346 µM"
>>> endpoint_value("O=C(COc1ccccc1-c1nc(-c2ccccc2)no1)NNC(=O)c1ccc2ccccc2n1")
"274 µM"
>>> endpoint_value("O=C(COc1ccccc1-c1nc(Cc2ccccc2)no1)NN1C(=O)c2ccccc2C1=O")
"713 µM"
>>> endpoint_value("O=C(COc1ccccc1-c1nc(-c2ccccc2)no1)NN1C(=O)c2ccccc2C1=O")
"394 µM"
>>> endpoint_value("O=C(COc1ccccc1-c1nc(-c2ccc(C(F)(F)F)cc2)no1)NN1C(=O)c2ccccc2C1=O")
"117 µM"
>>> endpoint_value("O=C(COc1ccccc1-c1nc(-c2ccc(C(F)(F)F)cc2)no1)N/N=C\\c1ccccc1[N+](=O)[O-]")
"266 µM"
>>> endpoint_value("NNC(=O)COc1ccccc1-c1nc(Cc2ccccc2)no1")
"535 µM"
>>> endpoint_value("NNC(=O)COc1ccccc1-c1nc(-c2ccc(C(F)(F)F)cc2)no1")
"397 µM"
>>> endpoint_value("NNC(=O)COc1ccccc1-c1nc(-c2ccccc2)no1")
"359 µM"
>>> endpoint_value("O=C(COc1ccccc1-c1nc(Cc2ccccc2)no1)N/N=C\\c1cnn(-c2ccccc2)n1")
"140 µM"

====

Measured IC50 accompanies every entry in the list below.
- target-or-system: MAO-A (Homo sapiens)
- Sequence (P21397 1-527): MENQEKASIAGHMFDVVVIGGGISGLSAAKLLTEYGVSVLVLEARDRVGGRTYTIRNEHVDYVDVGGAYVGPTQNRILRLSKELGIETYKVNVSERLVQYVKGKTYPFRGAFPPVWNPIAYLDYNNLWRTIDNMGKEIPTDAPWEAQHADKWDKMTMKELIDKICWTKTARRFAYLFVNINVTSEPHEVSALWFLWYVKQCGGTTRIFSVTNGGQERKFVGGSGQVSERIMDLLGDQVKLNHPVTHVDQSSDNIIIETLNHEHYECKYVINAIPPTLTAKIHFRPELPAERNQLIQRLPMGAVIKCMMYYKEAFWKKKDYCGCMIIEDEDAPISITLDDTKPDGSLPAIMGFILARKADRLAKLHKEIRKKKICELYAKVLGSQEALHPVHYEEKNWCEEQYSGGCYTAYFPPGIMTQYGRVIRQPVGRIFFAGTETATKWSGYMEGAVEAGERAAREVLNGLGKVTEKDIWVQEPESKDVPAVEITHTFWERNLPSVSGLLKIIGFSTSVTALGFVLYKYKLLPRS
measured-quantity: IC50 (µM)

>>> endpoint_value("O=C(COc1ccccc1-c1nc(Cc2ccccc2)no1)NN1C(=O)c2ccccc2C1=O")
130
>>> endpoint_value("NNC(=O)COc1ccccc1-c1nc(-c2ccc(C(F)(F)F)cc2)no1")
147
>>> endpoint_value("O=C(COc1ccccc1-c1nc(-c2ccc(C(F)(F)F)cc2)no1)N/N=C\\c1cnn(-c2ccccc2)n1")
115
>>> endpoint_value("NNC(=O)COc1ccccc1-c1nc(Cc2ccccc2)no1")
82.5
